assayedTarget: Serine/threonine-protein kinase Chk1 (Homo sapiens)
Sequence (O14757 whole entry): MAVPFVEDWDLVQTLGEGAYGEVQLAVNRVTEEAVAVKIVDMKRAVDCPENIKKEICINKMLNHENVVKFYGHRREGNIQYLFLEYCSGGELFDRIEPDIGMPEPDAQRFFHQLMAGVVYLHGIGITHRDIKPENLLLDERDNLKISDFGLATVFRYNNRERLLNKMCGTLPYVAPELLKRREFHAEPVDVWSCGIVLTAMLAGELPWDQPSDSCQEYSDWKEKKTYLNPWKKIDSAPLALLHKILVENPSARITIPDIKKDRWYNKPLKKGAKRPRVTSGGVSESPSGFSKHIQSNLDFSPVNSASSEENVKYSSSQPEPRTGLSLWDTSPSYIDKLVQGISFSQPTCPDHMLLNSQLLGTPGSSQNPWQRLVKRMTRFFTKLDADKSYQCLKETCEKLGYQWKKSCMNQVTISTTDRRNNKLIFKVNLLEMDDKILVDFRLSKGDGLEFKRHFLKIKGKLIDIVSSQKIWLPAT
propertyLabel: IC50 (nM)

[
  {
    "smilesCode": "Cc1[nH]nc2c1c(OCCCN)nc1ccc(Cl)cc12",
    "testValue": 64
  },
  {
    "smilesCode": "CC(=O)Nc1ccc2[nH]c(=O)c3c(C)[nH]nc3c2c1",
    "testValue": 7080
  },
  {
    "smilesCode": "CCn1c(=O)c2c(C)[nH]nc2c2cc3c(cc21)CN(C(=O)CN)CC3",
    "testValue": 18
  },
  {
    "smilesCode": "Cc1[nH]nc2c1c(=O)[nH]c1cc3c(cc12)CCCC3",
    "testValue": 130
  }
]

P. Cc1[nH]nc2c1c(OCCN)nc1ccc(Cl)cc12
Q. CCn1c(=O)c2c(C)[nH]nc2c2cc3c(cc21)CN(C(=O)NCCN)CC3
Challenge: Higher IC50: P or Q ? Your answer should be the label of the entry you select.
Response given: P
(P: 850 nM, Q: 12 nM)

A. Cc1[nH]nc2c1c(NCCCN)nc1ccc(Cl)cc12
B. Cc1[nH]nc2c1c(NCCN)nc1ccc(Cl)cc12
Challenge: # query: argmin of IC50 over A and B Pick one and reply with its label.
Response given: B
(B: 60 nM, A: 220 nM)

P. Cc1[nH]nc2c1c(=O)n(C[C@H](F)CN)c1cc(C3CCCCC3)c(C3CCCCC3)cc21
Q. Cc1[nH]nc2c1c(=O)[nH]c1c(CCCN)c(C3CCCCC3)c(C3CCCCC3)cc12
Challenge: Consider entries P and Q . Which has the numerically lower IC50? // caller expects the label of the chosen entry
Response given: P
(P: 3.1 nM, Q: 290 nM)

1. Cc1[nH]nc2c1c(=O)[nH]c1ccc(Cl)cc12
2. Cc1ccc2[nH]c(=O)c3c(C)[nH]nc3c2c1
Challenge: Which value of IC50 is numerically greater: that of 1 or that of 2 ? Record your answer as the label of the chosen record.
Response given: 2

All values here come from ChEMBL document CHEMBL1139824.
